Value source: paper PMC11595864

- Tested on: zebrafish
- run.description: Zebrafish acute toxicity assay
- Assay type: in vivo
- details: zebrafish, 10 mg/L, 96h
Answer each item with its documented Survival percent.

Task: Identify the reported Survival percent for the following entry. O=S(=O)([O-])[O-].[Cu+2] [CuSO4, cupric sulfate anhydrous, reference compound]
Output: 0

Task: Identify the reported Survival percent for the following entry. CCCCc1nc(C(=O)NCCc2c[nH]c3ccccc23)cs1 [Compound 6j]
Output: 0

Task: Identify the reported Survival percent for the following entry. CC(=O)c1nc(C(=O)NCCc2c[nH]c3ccccc23)cs1 [bacillamide A]
Output: 100

Task: Identify the reported Survival percent for the following entry. O=C(NCCc1c[nH]c2ccccc12)c1csc(-c2ccccc2)n1 [Compound 6a]
Output: 0

###

- System: zebrafish
- run.description: Zebrafish acute toxicity assay
- Format: in vivo
- details: zebrafish, 10 mg/L, 24h
Answer each item with its documented Survival percent.

Task: Identify the reported Survival percent for the following entry. CC(=O)c1nc(C(=O)NCCc2c[nH]c3ccccc23)cs1 [bacillamide A]
Output: 100

Task: Identify the reported Survival percent for the following entry. CCCCc1nc(C(=O)NCCc2c[nH]c3ccccc23)cs1
Output: 80

Task: Identify the reported Survival percent for the following entry. O=S(=O)([O-])[O-].[Cu+2] [CuSO4, cupric sulfate anhydrous, reference compound]
Output: 0

Task: Identify the reported Survival percent for the following entry. O=C(NCCc1c[nH]c2ccccc12)c1csc(-c2ccccc2)n1
Output: 0

###

- System: zebrafish
- run.description: Zebrafish acute toxicity assay
- Format: in vivo
- details: zebrafish, 0.1 mg/L, 48h
Answer each item with its documented Survival percent.

Task: Identify the reported Survival percent for the following entry. O=C(NCCc1c[nH]c2ccccc12)c1csc(-c2ccccc2)n1
Output: 100

Task: Identify the reported Survival percent for the following entry. CCCCc1nc(C(=O)NCCc2c[nH]c3ccccc23)cs1
Output: 100

Task: Identify the reported Survival percent for the following entry. O=S(=O)([O-])[O-].[Cu+2] [CuSO4, cupric sulfate anhydrous, reference compound]
Output: 80

Task: Identify the reported Survival percent for the following entry. CC(=O)c1nc(C(=O)NCCc2c[nH]c3ccccc23)cs1 [bacillamide A]
Output: 100

###

- Tested on: zebrafish
- run.description: Zebrafish acute toxicity assay
- Assay type: in vivo
- details: zebrafish, 10 mg/L, 72h
readout.type: Survival percent
# answer = number (no unit)

Task: Identify the reported Survival percent for the following entry. CC(=O)c1nc(C(=O)NCCc2c[nH]c3ccccc23)cs1 [bacillamide A]
Output: 100

Task: Identify the reported Survival percent for the following entry. CCCCc1nc(C(=O)NCCc2c[nH]c3ccccc23)cs1
Output: 0

Task: Identify the reported Survival percent for the following entry. O=S(=O)([O-])[O-].[Cu+2] [CuSO4, cupric sulfate anhydrous, reference compound]
Output: 0

Task: Identify the reported Survival percent for the following entry. O=C(NCCc1c[nH]c2ccccc12)c1csc(-c2ccccc2)n1
Output: 0

###

- Test system: zebrafish
- run.description: Zebrafish acute toxicity assay
- Assay type: in vivo
- details: zebrafish, 0.1 mg/L, 72h
- Description: Zebrafish acute toxicity of bacillamide A and synthesized BDs were evaluated at 0.1 mg/L, 1 mg/L, and 10 mg/L, respectively. Diuron and CuSO4 were used as positive controls. The commercial zebrafish (body length > 3.0 cm) were domesticated in aerated tap water for 24 h, fed once daily for seven consecutive days, and stopped being fed before the experiment. 4. Acute toxicity table S1. Compound Concentration Survival percent Acute […]
readout.type: Survival percent
# answer = number (no unit)

Task: Identify the reported Survival percent for the following entry. CCCCc1nc(C(=O)NCCc2c[nH]c3ccccc23)cs1
Output: 100

Task: Identify the reported Survival percent for the following entry. CC(=O)c1nc(C(=O)NCCc2c[nH]c3ccccc23)cs1 [bacillamide A]
Output: 100

Task: Identify the reported Survival percent for the following entry. O=S(=O)([O-])[O-].[Cu+2] [CuSO4, cupric sulfate anhydrous, reference compound]
Output: 73

Task: Identify the reported Survival percent for the following entry. O=C(NCCc1c[nH]c2ccccc12)c1csc(-c2ccccc2)n1
Output: 100

###

- System: zebrafish
- run.description: Zebrafish acute toxicity assay
- Format: in vivo
- details: zebrafish, 1 mg/L, 48h
readout.type: Survival percent

Task: Identify the reported Survival percent for the following entry. CC(=O)c1nc(C(=O)NCCc2c[nH]c3ccccc23)cs1 [bacillamide A]
Output: 87

Task: Identify the reported Survival percent for the following entry. CCCCc1nc(C(=O)NCCc2c[nH]c3ccccc23)cs1 [Compound 6j]
Output: 100

Task: Identify the reported Survival percent for the following entry. O=S(=O)([O-])[O-].[Cu+2] [CuSO4, cupric sulfate anhydrous, reference compound]
Output: 50

Task: Identify the reported Survival percent for the following entry. O=C(NCCc1c[nH]c2ccccc12)c1csc(-c2ccccc2)n1 [Compound 6a]
Output: 80

###

- Test system: zebrafish
- run.description: Zebrafish acute toxicity assay
- Assay type: in vivo
- details: zebrafish, 10 mg/L, 48h
readout.type: Survival percent
# answer = number (no unit)

Task: Answer briefly: Survival percent recorded on zebrafish for CCCCc1nc(C(=O)NCCc2c[nH]c3ccccc23)cs1
Output: 0

Task: Answer briefly: Survival percent recorded on zebrafish for O=C(NCCc1c[nH]c2ccccc12)c1csc(-c2ccccc2)n1
Output: 0

Task: Answer briefly: Survival percent recorded on zebrafish for CC(=O)c1nc(C(=O)NCCc2c[nH]c3ccccc23)cs1 [bacillamide A]
Output: 100

Task: Answer briefly: Survival percent recorded on zebrafish for O=S(=O)([O-])[O-].[Cu+2] [CuSO4, cupric sulfate anhydrous, reference compound]
Output: 0

###

- Tested on: zebrafish
- run.description: Zebrafish acute toxicity assay
- Type: in vivo
- details: zebrafish, 0.1 mg/L, 96h
Answer each item with its documented Survival percent.
# answer = number (no unit)

Task: Answer briefly: Survival percent recorded on zebrafish for CC(=O)c1nc(C(=O)NCCc2c[nH]c3ccccc23)cs1 [bacillamide A]
Output: 100

Task: Answer briefly: Survival percent recorded on zebrafish for O=C(NCCc1c[nH]c2ccccc12)c1csc(-c2ccccc2)n1
Output: 100

Task: Answer briefly: Survival percent recorded on zebrafish for O=S(=O)([O-])[O-].[Cu+2] [CuSO4, cupric sulfate anhydrous, reference compound]
Output: 73

Task: Answer briefly: Survival percent recorded on zebrafish for CCCCc1nc(C(=O)NCCc2c[nH]c3ccccc23)cs1
Output: 100

###

- Tested on: zebrafish
- run.description: Zebrafish acute toxicity assay
- Type: in vivo
- details: zebrafish, 1 mg/L, 24h
- Protocol: Zebrafish acute toxicity of bacillamide A and synthesized BDs were evaluated at 0.1 mg/L, 1 mg/L, and 10 mg/L, respectively. Diuron and CuSO4 were used as positive controls. The commercial zebrafish (body length > 3.0 cm) were domesticated in aerated tap water for 24 h, fed once daily for seven consecutive days, and stopped being fed before the experiment. 4. Acute toxicity table S1. Compound Concentration Survival percent Acute […]
readout.type: Survival percent

Task: Identify the reported Survival percent for the following entry. CC(=O)c1nc(C(=O)NCCc2c[nH]c3ccccc23)cs1 [bacillamide A]
Output: 100

Task: Identify the reported Survival percent for the following entry. CCCCc1nc(C(=O)NCCc2c[nH]c3ccccc23)cs1 [Compound 6j]
Output: 100

Task: Identify the reported Survival percent for the following entry. O=S(=O)([O-])[O-].[Cu+2] [CuSO4, cupric sulfate anhydrous, reference compound]
Output: 50

Task: Identify the reported Survival percent for the following entry. O=C(NCCc1c[nH]c2ccccc12)c1csc(-c2ccccc2)n1 [Compound 6a]
Output: 83

###

Answer each item with its documented Survival percent.
- Tested on: zebrafish
- run.description: Zebrafish acute toxicity assay
- Format: in vivo
- details: zebrafish, 10 mg/L, 0h

Task: Identify the reported Survival percent for the following entry. O=S(=O)([O-])[O-].[Cu+2] [CuSO4, cupric sulfate anhydrous, reference compound]
Output: 100

Task: Identify the reported Survival percent for the following entry. CC(=O)c1nc(C(=O)NCCc2c[nH]c3ccccc23)cs1 [bacillamide A]
Output: 100

Task: Identify the reported Survival percent for the following entry. O=C(NCCc1c[nH]c2ccccc12)c1csc(-c2ccccc2)n1
Output: 100

Task: Identify the reported Survival percent for the following entry. CCCCc1nc(C(=O)NCCc2c[nH]c3ccccc23)cs1
Output: 100

###

readout.type: melting point

Task: Identify the reported melting point for the following entry. CCOc1ccc(-c2nc(C(=O)NCCc3c[nH]c4ccccc34)cs2)cc1
Output: 184 to 185 °C

Task: Identify the reported melting point for the following entry. NCCNC(=O)c1csc(-c2ccccc2)n1
Output: 173 to 174 °C

Task: Identify the reported melting point for the following entry. O=C(NCCc1c[nH]c2ccccc12)c1csc(-c2ccccc2[N+](=O)[O-])n1
Output: 122 to 123 °C

Task: Identify the reported melting point for the following entry. CC(C)(C)OC(=O)NCCNC(=O)c1csc(-c2ccccc2)n1
Output: 162 to 163 °C

Task: Identify the reported melting point for the following entry. COc1ccc2[nH]cc(CCNC(=O)c3csc(-c4ccccc4)n3)c2c1
Output: 164 to 165 °C

Task: Identify the reported melting point for the following entry. O=C(NCCc1c[nH]c2ccccc12)c1csc(-c2cccs2)n1
Output: 189 to 190 °C
